# experimental target: human alpha-synuclein pre-formed fibrils (human, UniProt P37840 1-140)
# test name: competition ELISA: fibrils titrated in solution against 0.6 nM antibody, free antibody read on aSyn-coated plate
quantity measured: log10 IC50 (log10 of the value in nM)
Field: value | Transform: log10 | Quantity: IC50 | Unit: nM

Consider the reported log10 IC50 for these binders:
binder	log10 IC50
1H5 (antibody, rat IgG2b, V domains shown, also called clone 1H5) VH: AVQLVESGGGLVQPKESLKISCAASGFTFSDAAMYWVRQAPGKGLELVARIRTKPNNYATYYADSVKGRFTISRDDSKSMVYLQMGNLKTEDTAMYYCSADFHYFDYWGQGVMVTVSS VL: DIQMTQSPSVLSASVGDRVTLSCKAGQNINKNLDWYQQKLGEAPKLLISFTNNLQTGVPSRFSGSGSGSDYTLTISSLQPEDVATYYCYQYNSGWTFGGGTKLELK	0.77
18B4 (antibody, IgG2b, V domains shown, also called clone 18B4) VH: EVQLVESGGGLVQPGRSLKLSCAASGFTFSSFAMAWVRQAPKKGLEWVATITSGGSKTYYPDSVKGRFTISRDNAKSTLYLQMDSLRSEDTATYYCAKGYFDYWGQGVMVTVSS VL: DVVLTQTPPTLSATIGQSVSISCRSSQSLLHSNGNTYLHWLLQRPGQSPQLLIYLVSRLESGVPNRFSGSGSGTDFTLKISGVEAEDLGVYYCVQGTHAPLTFGSGTKLEIK	1.93
20H4 (antibody, rat IgG2b, V domains shown, also called clone 20H4; rat 20H4) VH: AVQLVESGGGLVQPKESLKISCAASGFTFSNAAMYWVRQAPGKGLELLARIRTKPNNYATYHADSVKGRFTISRDDSQSMVYLHMGNLKTEDTAMYYCTADMATGDYWGPGVMVTVSS VL: DIQMTQSPPVLSVSVGDRVTLSCKASQNINKNLDWYQQKHGEAPKPLIYSTNNLQTGVPSRFSGSGSGTDYTLTISSLQPEDVATYYCYQYKSAWTFGGGTKLELR	0.24
22D11 (antibody, rat IgG1, V domains shown, also called clone 22D11) VH: AVQFVESGGGLVRPKESLKISCTASGFTFTNAAIYWVRQAPGKGLECIARIRTKPNNYATYYADSVRGRFTISRDDSKPMVYLQMNELKTEDTAMYYCAADASRGDYWGQGVMVTVSS VL: DIQMTQSPSVLSASVGDRVTFSCKASQNINKNLDWYQQKLGEVPKVLIYFTNNLQTGIPSRFSGSGSGTDYTLTISSLQPEDVATYYCYQYTSGFTFGAGTKLELK	0.66

## Task In one line, give reported log10 IC50 of the entry 22E11 (antibody, IgG1, V domains shown, also called clone 22E11) VH: AVQLVESGGGLVQPKESLKISCAASGFTFSTAAMYWVRQAPGKGLEWVTRIRTKPNNYATYYADSVKGRFTISRDDSKSMVYLQMDNLKTEDTAMYYCTADYYDGTPFAYWGQGTLVTVSS VL: AVVMTQTPVSLSVSLGGQVSISCRSSQSLVHNNGITYLSWYLQKPGQSPQLPIYKVSNRFSGFSDRFSGGGSGTDFTLKISRVEPDDLGLYYCGQGTQYPYTFGAGTKLELK .
## Result 1.45

Source listed as patent US20230074436A1.
